target: human isoleucine zipper-CD40L (IZ-hCD40L) (human) (UniProt P29965); assay: cell-based or functional assay
Sequence (P29965 113-261): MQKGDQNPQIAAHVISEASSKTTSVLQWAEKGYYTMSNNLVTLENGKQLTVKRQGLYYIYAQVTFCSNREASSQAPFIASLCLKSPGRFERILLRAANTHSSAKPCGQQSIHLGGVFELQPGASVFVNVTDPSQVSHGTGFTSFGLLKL
outcome.measure: hIZCD40L-driven Human B Cell Proliferation EC50 (nM)

>  <binder>
2h719-202-N297Qshort Fc (Fc fusion, not shown: a dimerising Fc or GST) EVQLLESGGGLVQPGGSLRLSCAASGFTFKKYEMMWVRQAPGKGLEWVSSISSDGSFTYYADSVKGRFTISRDNSKNTLYLQMNSLRAEDTAVYYCAEPFTEFDYWGHGTLVTVSS

>  <observed.measurement>
1.8

$$$$

[P] 2h719-2 Fc (Fc fusion, not shown: a dimerising Fc or GST) EVQLLESGGGLVQPGGSLRLSCAASGFTFKRYEMMWVRQAPGKGLEWVSSISSDGSFTYYADSVKGRFTISRDNSKNTLYLQMNSLRAEDTAVYYCAEPFTEFDYWGHGTLVTVSS
[Q] 2h572-633-CT-Fc SP5 (Fc fusion, not shown: a dimerising Fc or GST) EVQLLESGGGLVQPGGSLRLSCAASGFTFNWELMGWARQAPGKGLEWVSGIEGPGDVTYYADSVKGRFTISRDNSKNTLYLQMNSLRAEDTAVYYCVKVGKDAKSDYRGQGTLVTVSS
[R] 2h572-635 Fc (Fc fusion, not shown: a dimerising Fc or GST) EVQLLESGGGLVQPGGSLRLSCAASGFTFNWELMGWARQAPGKGLEWVSGIEGPGDVTYYADSVKGRFTISRDNSKNTLYLQMNSLRAEDTAVYYCVKVGKDSKSDYRGQGTLVTVSS
Prompt line: Put the binders in ascending order of hIZCD40L-driven Human B Cell Proliferation EC50. Please express your ranking as an ordered list of the labels.
Response line: P, R, Q
